IC50 overview
target: full length active recombinant SYK enzyme (Homo sapiens, UniProt P43405); construct: full length active recombinant SYK enzyme (Millipore, Calif.); experiment: Inhibition of Syk tyrosine phosphorylation activity (LANCE TR-FRET kinase assay)
parameter-measured: IC50

[[record]]
molecule = "COc1nc(Nc2ccc(N3CCN(C(C)=O)CC3)cc2)nc(NC2CC2)c1C(N)=O [Example 69]"
parameter_measured = "IC50"
reported = "> 1000 nM"

[[record]]
molecule = "CC(=O)N1CCN(c2ccc(Nc3nc(O)c(C(N)=O)c(Nc4cccc(C)c4)n3)cc2)CC1 [Example 64]"
parameter_measured = "IC50"
reported = "> 1000 nM"

[[record]]
molecule = "CC[C@@H](Nc1nc(Nc2cccc(-c3ncccc3F)c2)c(C(N)=O)c(=O)[nH]1)C(N)=O [Example 81]"
parameter_measured = "IC50"
reported = "1 to 10 nM"

[[record]]
molecule = "Cc1cc(C)cc(Nc2nc(NC3CCCCC3N)[nH]c(=O)c2C(N)=O)c1 (centres unmarked) [Example 57]"
parameter_measured = "IC50"
reported = "100 to 1000 nM"

[[record]]
molecule = "CNCCNc1nc(Nc2cccc(-n3nccn3)c2)c(C(N)=O)c(=O)[nH]1 [Example 23]"
parameter_measured = "IC50"
reported = "10 to 100 nM"

[[record]]
molecule = "CC[C@@H](Nc1nc(Nc2ccc(OC)cc2)c(C(N)=O)c(=O)[nH]1)C(N)=O [Example 90]"
parameter_measured = "IC50"
reported = "1 to 10 nM"

[[record]]
molecule = "Cc1cc(C)cc(Nc2nc(NC[C@H](C)N)[nH]c(=O)c2C(N)=O)c1 [Example 54]"
parameter_measured = "IC50"
reported = "> 1000 nM"

[[record]]
molecule = "CC[C@@H](Nc1nc(Nc2ccc3c(ccc[n+]3[O-])c2)c(C(N)=O)c(OC)n1)C(N)=O [Example 17]"
parameter_measured = "IC50"
reported = "10 to 100 nM"

[[record]]
molecule = "COc1ccc(Nc2nc(N[C@H](CC(C)C)C(N)=O)[nH]c(=O)c2C(N)=O)cn1 [Example 110]"
parameter_measured = "IC50"
reported = "1 to 10 nM"

[[record]]
molecule = "NC(=O)c1c(Nc2cccc(-c3ncccn3)c2)nc(N[C@@H]2CCCC[C@@H]2N)[nH]c1=O [Example 38]"
parameter_measured = "IC50"
reported = "1 to 10 nM"

[[record]]
molecule = "CC[C@@H](Nc1nc(Nc2ccc3c(c2)OCCO3)c(C(N)=O)c(=O)[nH]1)C(N)=O [Example 86]"
parameter_measured = "IC50"
reported = "1 to 10 nM"

[[record]]
molecule = "CC(C)[C@@H](Nc1nc(Nc2cccc(-c3ccccn3)c2)c(C(N)=O)c(=O)[nH]1)C(N)=O [Example 96]"
parameter_measured = "IC50"
reported = "1 to 10 nM"

[[record]]
molecule = "CC(C)C[C@@H](Nc1nc(Nc2ccc3ncsc3c2)c(C(N)=O)c(=O)[nH]1)C(N)=O [Example 29]"
parameter_measured = "IC50"
reported = "< 1 nM"

[[record]]
molecule = "COc1ccc(Nc2nc(N[C@H](CC(C)C)C(N)=O)[nH]c(=O)c2C(N)=O)cc1 [Example 89]"
parameter_measured = "IC50"
reported = "1 to 10 nM"

[[record]]
molecule = "NC(=O)c1c(Nc2cccc(-n3nccn3)c2)nc(N[C@@H]2CCCC[C@@H]2N)[nH]c1=O [Example 5]"
parameter_measured = "IC50"
reported = "1 to 10 nM"

[[record]]
molecule = "NC(=O)c1c(Nc2cccc(-c3ccccn3)c2)nc(N[C@H](CC2CC2)C(N)=O)[nH]c1=O [Example 95]"
parameter_measured = "IC50"
reported = "1 to 10 nM"

[[record]]
molecule = "CC[C@@H](Nc1nc(Nc2ccc3ncccc3c2)c(C(N)=O)c(=O)[nH]1)C(N)=O [Example 21]"
parameter_measured = "IC50"
reported = "< 1 nM"

[[record]]
molecule = "CC(C)[C@H](CN)Nc1nc(Nc2cccc(-n3nccn3)c2)c(C(N)=O)c(=O)[nH]1 [Example 22]"
parameter_measured = "IC50"
reported = "1 to 10 nM"

[[record]]
molecule = "CC[C@@H](Nc1nc(Nc2cccc(-n3nccn3)c2)c(C(N)=O)c(=O)[nH]1)C(N)=O [Example 8]"
parameter_measured = "IC50"
reported = "10 to 100 nM"

[[record]]
molecule = "CC[C@@H](Nc1nc(Nc2cccc(OC(F)F)c2)c(C(N)=O)c(=O)[nH]1)C(N)=O [Example 88]"
parameter_measured = "IC50"
reported = "1 to 10 nM"

[[record]]
molecule = "CC(C)C[C@@H](Nc1nc(Nc2ccc3cn[nH]c3c2)c(C(N)=O)c(=O)[nH]1)C(N)=O [Example 35]"
parameter_measured = "IC50"
reported = "< 1 nM"

[[record]]
molecule = "CC(C)C[C@@H](Nc1nc(Nc2ccc3[nH]ncc3c2)c(C(N)=O)c(=O)[nH]1)C(N)=O [Example 25]"
parameter_measured = "IC50"
reported = "< 1 nM"

[[record]]
molecule = "CC(C)C[C@@H](Nc1nc(Nc2cccc(-c3ccncc3)c2)c(C(N)=O)c(=O)[nH]1)C(N)=O [Example 112]"
parameter_measured = "IC50"
reported = "1 to 10 nM"

[[record]]
molecule = "COc1nc(Nc2ccc(N3CCOCC3)cc2)nc(NC2CC2)c1C(N)=O [Example 73]"
parameter_measured = "IC50"
reported = "> 1000 nM"

[[record]]
molecule = "Cc1cc(C)cc(Nc2nc(N[C@H](C)C(N)=O)[nH]c(=O)c2C(N)=O)c1 [Example 56]"
parameter_measured = "IC50"
reported = "> 1000 nM"

[[record]]
molecule = "CC[C@@H](Nc1nc(Nc2ccc(-n3cccn3)cc2)c(C(N)=O)c(=O)[nH]1)C(N)=O [Example 24]"
parameter_measured = "IC50"
reported = "1 to 10 nM"

[[record]]
molecule = "COCCOc1ccc(Nc2nc(N[C@H](CC(C)C)C(N)=O)[nH]c(=O)c2C(N)=O)cc1 [Example 93]"
parameter_measured = "IC50"
reported = "1 to 10 nM"

[[record]]
molecule = "CC[C@@H](Nc1nc(Nc2ccc(OC(F)(F)F)cc2)c(C(N)=O)c(=O)[nH]1)C(N)=O [Example 92]"
parameter_measured = "IC50"
reported = "1 to 10 nM"

[[record]]
molecule = "NC(=O)c1c(NC2CC2)nc(Nc2ccc(S(N)(=O)=O)cc2)[nH]c1=O [Example 44]"
parameter_measured = "IC50"
reported = "> 1000 nM"

[[record]]
molecule = "CC[C@@H](Nc1nc(Nc2cnc3ccccc3c2)c(C(N)=O)c(=O)[nH]1)C(N)=O [Example 109]"
parameter_measured = "IC50"
reported = "< 1 nM"

[[record]]
molecule = "CC(C)C[C@@H](Nc1nc(Nc2ccc3c(c2)OCO3)c(C(N)=O)c(=O)[nH]1)C(N)=O [Example 79]"
parameter_measured = "IC50"
reported = "< 1 nM"

[[record]]
molecule = "CC(C)C[C@@H](Nc1nc(Nc2cnc3ccccc3c2)c(C(N)=O)c(=O)[nH]1)C(N)=O [Example 108]"
parameter_measured = "IC50"
reported = "< 1 nM"

